Cited source: the supplement of paper PMC3545927

Target: furin, P09958;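 further: purified furin at 1:10 enzyme:substrate in 50 mM HEPES pH 7.5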
Sequence (P09958 whole entry): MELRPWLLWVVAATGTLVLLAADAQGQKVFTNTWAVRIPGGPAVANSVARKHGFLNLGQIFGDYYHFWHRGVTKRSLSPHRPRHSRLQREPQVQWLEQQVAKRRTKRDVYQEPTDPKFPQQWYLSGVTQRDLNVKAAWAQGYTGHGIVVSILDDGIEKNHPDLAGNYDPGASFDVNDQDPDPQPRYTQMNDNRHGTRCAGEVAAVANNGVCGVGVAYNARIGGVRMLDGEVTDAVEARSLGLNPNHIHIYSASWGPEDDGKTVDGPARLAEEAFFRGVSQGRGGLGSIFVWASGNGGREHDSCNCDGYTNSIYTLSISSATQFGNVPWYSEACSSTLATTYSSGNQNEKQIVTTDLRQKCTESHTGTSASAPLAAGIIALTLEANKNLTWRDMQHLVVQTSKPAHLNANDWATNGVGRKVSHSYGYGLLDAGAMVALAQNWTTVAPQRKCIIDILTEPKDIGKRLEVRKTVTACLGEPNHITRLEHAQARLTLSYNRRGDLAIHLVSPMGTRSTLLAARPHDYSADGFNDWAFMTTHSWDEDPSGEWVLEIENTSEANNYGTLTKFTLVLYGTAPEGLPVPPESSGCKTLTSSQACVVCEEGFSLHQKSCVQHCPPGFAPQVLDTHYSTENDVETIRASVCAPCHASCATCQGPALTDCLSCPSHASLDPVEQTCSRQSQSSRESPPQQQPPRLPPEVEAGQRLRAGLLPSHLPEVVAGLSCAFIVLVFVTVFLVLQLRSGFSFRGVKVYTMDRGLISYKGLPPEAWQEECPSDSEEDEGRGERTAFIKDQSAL
Assay: furin cleavage Z-score vs untreated control; higher = more cleavage, active = 3.5 or more, inactive = 1 or less, 8 variable residues between constant flanks
Settings: 30 min
Some of the results follow. No count for the full screen is at hand.
Test Readout: furin cleavage Z-score
One number for each entry.

1. CAEVPCHRDSAGNASASA [HC2391]	1.63
2. CARPWKSVSEAGNASASA [FS-2060]	1.73

Now, please, on to the next sequence.
Query: Endpoint output: furin cleavage Z-score of CASLKRDVSLAGNASASA [FS-2473] . Value?
Response: 1.41
